- System: HT-29
- protocol summary: NCI tumour cell line growth inhibition, 48 h
Calls of active or inactive are those of the source. Rule as the data show it: active = GI50 up to about 1.1 µM and inactive = higher.
Reported GI50 values for the following molecules.
readout name: GI50

[
  {
    "molecule": "COc1ccc(OC)c(/C=C/C(=O)C(C)(C)C)c1",
    "measurement": "27.4 µM (inactive)"
  },
  {
    "molecule": "Cc1ccc2c(c1C)C(=O)C1(C2)Cc2ccc3c(c2C1=O)CCC3 (stereo not given)",
    "measurement": "> 100 µM (inactive)"
  },
  {
    "molecule": "Cc1ccccc1OC(C)C(=O)NN1C(=O)CC(=O)NC1=S (stereo not given)",
    "measurement": "> 100 µM (inactive)"
  },
  {
    "molecule": "O=S1(=O)Cc2ccc3c4c2-c2c(ccc5ccc(c-4c25)CS(=O)(=O)C3)C1",
    "measurement": "57 µM (inactive)"
  },
  {
    "molecule": "CN1/C(=N\\c2ccccc2)S/C1=N/c1ccccc1",
    "measurement": "55.5 µM (inactive)"
  },
  {
    "molecule": "CC(=O)NC1C(OC2C(CO)OC(OCC3OC(n4ccc(N)nc4=O)C(O)C3O)C(NC(C)=O)C2O)OC(CO)C(O)C1O (stereo not given)",
    "measurement": "> 100 µM (inactive)"
  },
  {
    "molecule": "CCOC(=O)C1=C(C)N(C2OC(COC(C)=O)C(OC(C)=O)C(OC(C)=O)C2OC(C)=O)C(=O)NC1c1ccccc1 (stereo not given)",
    "measurement": "> 100 µM (inactive)"
  },
  {
    "molecule": "COc1cc2c(cc1OC)C1(c3ccccc3)ON=C(c3ccccc3)N1CS2 (stereo not given)",
    "measurement": "55.2 µM (inactive)"
  },
  {
    "molecule": "COc1ccc(C(=C[N+](=O)[O-])c2ccc(OC)cc2)cc1",
    "measurement": "4.52 µM (inactive)"
  },
  {
    "molecule": "C/C(CN1C(=O)c2ccccc2C1=O)=N\\NS(=O)(=O)c1ccccc1",
    "measurement": "> 100 µM (inactive)"
  }
]
